Assignment: determine reported COUNTERSCREEN Efficacy (%) for the given molecules.
Molecular target: GST-CIB1 : F-scrambled peptide (Homo sapiens, UniProt Q99828)
Construct: made in house; host or cells: BL-21 plus RIL cells (E. coli)
Sequence (Q99828 whole entry): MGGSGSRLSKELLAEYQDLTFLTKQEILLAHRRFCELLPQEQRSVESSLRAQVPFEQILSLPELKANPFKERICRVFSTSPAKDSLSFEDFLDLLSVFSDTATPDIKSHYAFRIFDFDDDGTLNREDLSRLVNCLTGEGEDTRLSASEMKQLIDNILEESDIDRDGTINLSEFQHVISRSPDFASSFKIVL
Assay: FP scrambled-peptide counter screen, 1536-well format
Type: binding
Conditions: scrambled-peptide counterscreen
Give bare numbers, in %.

{"MOLECULE": "O=[N+]([O-])c1cnc(Sc2nnc(O)n2-c2ccc3c(c2)OCCO3)s1", "TESTED_SYSTEM": "GST-CIB1 : F-scrambled peptide (Homo sapiens, UniProt Q99828)", "COUNTERSCREEN Efficacy (%)": 15}
{"MOLECULE": "O=C(Cc1ccc(Cl)c(Cl)c1)Nc1ccc(S(=O)(=O)Nc2nncs2)cc1.O=C(O)C(F)(F)F", "TESTED_SYSTEM": "GST-CIB1 : F-scrambled peptide (Homo sapiens, UniProt Q99828)", "COUNTERSCREEN Efficacy (%)": 12}
{"MOLECULE": "Cc1ccc(S(=O)(=O)Nc2cnccc2C(=O)Nc2nc(-c3cccc(Cl)c3)cs2)cc1.O=C(O)C(F)(F)F", "TESTED_SYSTEM": "GST-CIB1 : F-scrambled peptide (Homo sapiens, UniProt Q99828)", "COUNTERSCREEN Efficacy (%)": -8.5}
{"MOLECULE": "Br.CCCCCCCCCCCCCCCC[N+](C)(C)C.[Br-]", "TESTED_SYSTEM": "GST-CIB1 : F-scrambled peptide (Homo sapiens, UniProt Q99828)", "COUNTERSCREEN Efficacy (%)": 0}
{"MOLECULE": "O=C1C=CC(=O)N1c1cccc(Br)c1", "TESTED_SYSTEM": "GST-CIB1 : F-scrambled peptide (Homo sapiens, UniProt Q99828)", "COUNTERSCREEN Efficacy (%)": 14}

For every item below, please supply its COUNTERSCREEN Efficacy (%).
1. CCOC(=O)c1ccc(O)c2ncc(-c3ccc(C(=N)N)cc3)cc12.O=C(O)C(F)(F)F
2. O=C(c1cccs1)c1no[n+]([O-])c1C(=O)c1cccs1
3. CC[S+]([O-])c1nc(-c2cccc(OCc3ccccc3)c2)cc(C(F)(F)F)n1 (centres unmarked)

1: -18; 2: -36; 3: 21

----------
Target: CIB1 and αIIb interaction (CIB1-GST : F-αIIb peptide) (Homo sapiens, UniProt Q99828)
Construct: made in house; host or cells: BL-21 plus RIL cells (E. coli)
Sequence (Q99828 whole entry): as above
Test: FP assay, 1536-well qHTS format (primary and confirmatory screen)
Type: binding
Settings: Table S3, confirmatory screen; negative = inhibition
Quick rule: Efficacy (%) (confirmatory screen) of at least -40% means TRUE, below that means FALSE.

Use the examples below as a reference point.
{"COMPOUND": "O=C(O)C(F)(F)F.O=S(=O)(Nc1nccs1)c1ccc(Nc2nc(-c3ccccc3)cs2)cc1 [NCGC00262380-01]", "LABEL_CLASS": "FALSE"}
{"COMPOUND": "CN(CC(=O)Nc1ccc(N2CCOCC2)cc1)Cc1c(O)ccc2ccccc12.O=C(O)C(F)(F)F [NCGC00229682-01]", "LABEL_CLASS": "FALSE"}
{"COMPOUND": "Cc1ccc(OCCn2c(CCNC(=O)c3ccsc3)nc3ccccc32)cc1.O=C(O)C(F)(F)F [NCGC00238707-01]", "LABEL_CLASS": "TRUE"}
{"COMPOUND": "Cc1ccc(S(=O)(=O)Nc2ccc(Br)cc2C(=O)Nc2nc(-c3ccccc3)cs2)cc1.O=C(O)C(F)(F)F [NCGC00262989-01]", "LABEL_CLASS": "TRUE"}
{"COMPOUND": "N#Cc1ccc(NS(=O)(=O)c2ccc(NC(=O)Cc3ccc(F)c(Cl)c3)cc2)cc1.O=C(O)C(F)(F)F [NCGC00343891-01]", "LABEL_CLASS": "TRUE"}

Threshold query (Efficacy (%) (confirmatory screen) >= -40%) on CCCCCCCCCCCCCCCC[N+](C)(C)CCN(Cc1ccc(OC)cc1)c1ncccn1.[Br-] [NCGC00016507-05]
TRUE

Threshold query (Efficacy (%) (confirmatory screen) >= -40%) on C/C(=C\c1ccc2c(c1)OCO2)C1Nc2cccc3cccc(c23)N1 [NCGC00182904-03]
TRUE
